Target: T1, hu-IL-7Rγc subunit (human, UniProt P31785 23-262, limits assumed)
T1 construct: also called human Rγc subunit; common γc receptor
T1 sequence (looked up): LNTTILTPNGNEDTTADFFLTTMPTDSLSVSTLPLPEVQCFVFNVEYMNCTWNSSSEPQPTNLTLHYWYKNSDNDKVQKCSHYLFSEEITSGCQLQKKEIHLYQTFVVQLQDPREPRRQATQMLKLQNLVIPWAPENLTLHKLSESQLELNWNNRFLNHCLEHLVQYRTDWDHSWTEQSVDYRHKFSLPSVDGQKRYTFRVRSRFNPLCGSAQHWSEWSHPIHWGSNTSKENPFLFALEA
Experiment: not stated; binding to the specific binding site on the IL-7Rγc subunit
Assay Endpoint: IC50

- Binder: "RTCTEWENVVLCWV (also called Rγc ligand) [SEQ ID NO 462]"
  Measured Result: "< 10 µM"
- Binder: "CPSMLQGPERTWVC (also called Rγc ligand) [SEQ ID NO 464]"
  Measured Result: "< 10 µM"
- Binder: "MCWLEWGEWVGSCL (also called Rγc ligand) [SEQ ID NO 463]"
  Measured Result: "< 10 µM"
